Ref: ChEMBL document CHEMBL4706633

- tgt: Acid ceramidase (Homo sapiens)
- procedure_details: Inhibition of human acid ceramidase using Rbm14-12 fluorogenic substrate incubated for 1 hr by fluorescence assay
- condition_context: read-out: IC50
pIC50: −log10 of the molar value.
property_label: pIC50

1. COc1cccc(-c2cn(C(=O)NCCCCc3ccccc3)c(=O)o2)c1
2. CCOCCNC(=O)n1cc(-c2ccccc2)oc1=O
IN: Input pair: 1 , 2 . Output: entry with lower pIC50. # answer = label of selected item
OUT: 2
(2: 5.69, 1: 6.47)

a. COc1cc(-c2cn(C(=O)NCCCCc3ccccc3)c(=O)o2)ccc1F
b. CCCCCNC(=O)n1c(-c2ccccc2)coc1=O
c. COc1ccccc1-c1cn(C(=O)NCCCCc2ccccc2)c(=O)o1
d. O=C(NCCCCc1ccccc1)n1cc(-c2cscn2)oc1=O
IN: Task for the reader: rank each entry by its pIC50, from the minimum upward. Please list the labels in the order you were asked to rank them.
OUT: c, a, d, b
(c: 6.75, a: 7.10, d: 7.36, b: 7.60)

1. Cn1nc(-c2cn(C(=O)NCCCCc3ccccc3)c(=O)o2)c2ccccc21
2. O=C(NCCCCc1ccccc1)n1cc(-c2ccncc2)oc1=O
IN: Higher pIC50 between 1 and 2 ? # answer = label of selected item
OUT: 2
(2: 7.74, 1: 7.04)

I. O=C(NCCCCc1ccccc1)n1cc(-c2cccnc2)oc1=O
II. CCCCCNC(=O)n1cc(-c2ccc(F)cc2C2CCN(C)CC2)oc1=O
III. CN1CCC(c2cc(F)ccc2-c2cn(C(=O)NCCCCc3ccccc3)c(=O)o2)CC1
IN: // ranking: key=pIC50, reverse=True Please list the labels in the order you were asked to rank them.
OUT: I, II, III
(I: 7.15, II: 6.89, III: 6.47)

* * *

- tgt: Acid ceramidase (Homo sapiens, UniProt Q13510)
- Sequence (Q13510 whole entry): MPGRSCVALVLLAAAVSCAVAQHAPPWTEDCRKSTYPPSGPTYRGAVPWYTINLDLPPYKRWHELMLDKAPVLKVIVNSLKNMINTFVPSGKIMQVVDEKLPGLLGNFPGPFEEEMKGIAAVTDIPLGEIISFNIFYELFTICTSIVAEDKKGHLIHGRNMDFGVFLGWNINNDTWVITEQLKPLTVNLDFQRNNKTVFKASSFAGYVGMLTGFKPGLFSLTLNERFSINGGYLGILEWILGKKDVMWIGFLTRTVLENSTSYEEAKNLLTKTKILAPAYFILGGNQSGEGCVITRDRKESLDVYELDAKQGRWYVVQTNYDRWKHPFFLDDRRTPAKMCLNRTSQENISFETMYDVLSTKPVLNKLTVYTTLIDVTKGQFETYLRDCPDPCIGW
- procedure_details: Inhibition of acid ceramidase in human SK-OV-3 cell lysates
- Type: subcellular
property_label: pIC50
// pIC50 here means minus log10 of the molar concentration (mol/L)

IN: Kindly indicate its recorded pIC50. Item: COc1ccc(/C=C/C(=O)c2c(-c3ccccc3)c3ccccc3[nH]c2=O)cc1
OUT: 4.55

* * *

- procedure_details: Kinetic solubility in pH 7.4 PBS buffer at 250 uM incubated for 1 hr by UPLC/MS analysis
- Type: physicochemical
- condition_context: read-out: Kinetic_solubility
property_label: solubility kinetic at 1 h, 250 µM (µM)

Below, each entry is followed by its recorded solubility kinetic at 1 h, 250 µM result.
{"compound": "CN1CCC(c2cc(-c3cn(C(=O)NCCCCc4ccccc4)c(=O)o3)ccc2F)CC1", "property_label": "solubility kinetic at 1 h, 250 µM", "test_result": 30}
{"compound": "CN1CCC(c2cccc(-c3cn(C(=O)NCCCCc4ccccc4)c(=O)o3)c2)CC1", "property_label": "solubility kinetic at 1 h, 250 µM", "test_result": 70}

a. CN1CCC(c2cc(F)ccc2-c2cn(C(=O)NCCCCc3ccccc3)c(=O)o2)CC1
b. CCOCCNC(=O)n1cc(-c2ccccc2)oc1=O
IN: Higher solubility kinetic at 1 h, 250 µM between a and b ? # answer = label of selected item
OUT: a
(a: 60 µM, b: 20 µM)
